Test system: SK-MEL-5 melanoma
Test Name: NCI tumour cell line growth inhibition, 48 h
Hi there, I'd appreciate the recorded TGI for every entry that follows.

Molecule: CC1=C(C(N)=O)C(c2ccncc2)C(C#N)C(=O)N1 (stereo unspecified)
Target: SK-MEL-5 melanoma
TGI: > 100 µM

Provide TGI values for the following items, in order.
1. CCO/C=N\C1=C(C#N)SC2=N/C(=C\c3ccco3)C(=O)N21
2. O=c1cc(O)c1=O
3. CC1(C)N=C(N)N=C(N)N1c1cccc(CC(=O)Nc2ccccc2)c1
4. CCOC(=O)c1cn2c(n1)sc1cc([N+](=O)[O-])ccc12
5. C/C(=C\COP(=O)(O)CP(=O)(O)O)CC/C=C(\C)CNc1ccccc1

Response line:
["> 100 µM", "> 100 µM", "> 100 µM", "> 100 µM", "> 100 µM"]

Provide TGI values for the following items, in order.
1. CC(=O)OCC1OC(Sc2nc(-c3ccccc3)c(C#N)c(=O)n2C2OC(COC(C)=O)C(OC(C)=O)C(OC(C)=O)C2OC(C)=O)C(OC(C)=O)C(OC(C)=O)C1OC(C)=O (stereo unspecified)
2. CC(=O)OC(C(=O)NNC(=O)OC(C)(C)C)c1ccccc1 (stereo unspecified)
3. CC(=O)Nc1ccc(/C=C/C(=O)c2sc(-n3nc(-c4ccccc4)cc3-c3ccccc3)nc2C)cc1
4. CSc1cnc2ccccc2c1Sc1cn(C)c2ccccc2c1=O

Response line:
> 100 µM
> 100 µM
> 100 µM
> 100 µM

====

Hi there, I'd appreciate the recorded TGI for every entry that follows.
Test system: HL-60(TB) leukemia
Test Name: NCI tumour cell line growth inhibition, 48 h

Compound: O=C(c1ccccc1)N1N=C(C(F)(F)F)CC1(O)C(F)(F)F (centres undefined)
TGI: > 100 µM
//
Compound: CC(=O)Nc1ccc(/C=C/C(=O)c2sc(-n3nc(-c4ccccc4)cc3-c3ccccc3)nc2C)cc1
TGI: > 100 µM
//
Compound: c1ccc2sc(C3(N4CCCCCC4)CCCCC3)cc2c1
TGI: 40.9 µM

Prompt line: Lab note: need TGI with HL-60(TB) leukemia for entry `CSc1cnc2ccccc2c1Sc1cn(C)c2ccccc2c1=O` , please look it up.
Response line: > 100 µM

====

System: HCT-15 colon
Test Name: NCI tumour cell line growth inhibition, 48 h; in the data active = GI50 below about 0.43 µM; inactive = the rest
Thanks in advance; please answer with one of these: active, inactive

Compound: COc1ccc(-c2cc(-c3ccc(Cl)cc3)c(C#N)c(=O)n2CCCCCC(=O)Nc2ccccc2N)cc1
Discrete Label: inactive
//
Compound: N#CCC1CCN(c2nc(Nc3ccc(N4CCC(O)CC4)cc3)c3c(=O)[nH]ncc3n2)CC1
Discrete Label: inactive
//
Compound: N=C(N)c1ccc(-c2ccc(-c3cccs3)s2)cc1F
Discrete Label: inactive
//
Compound: CCc1ccc2cc3c(ccc4ccccc43)c3c2c1CC3
Discrete Label: inactive
//
Compound: CCN(CC)CCCC(C)Nc1ccnc2cc(OC)ccc12 (configuration not stated)
Discrete Label: inactive
//
Compound: COC(=O)[C@@H](C)C[C@H](Cc1ccccc1)NC(=O)c1nc([C@@H](C[C@H](C(C)C)N(C)C(=O)[C@@H](NC(=O)[C@H]2CC(=O)CCN2C)C(C)C)OC(C)=O)sc1C(C)C
Discrete Label: inactive
//
Compound: C=CN(C(=O)N1CCN(c2cc3c(cc2F)c(=O)c(C(=O)O)cn3C2CC2)CC1)c1nc(-c2ccc(C)cc2)cs1
Discrete Label: inactive
//
Compound: COc1cc(F)c(F)c(F)c1C(=O)c1cnc(NC2CCN(S(C)(=O)=O)CC2)nc1N
Discrete Label: inactive

Prompt line: Identify the outcome logged in this assay for the compound shown: `COc1cccc(-c2cc(-c3ccc(Nc4nc(Nc5ccc(Cl)cc5)nc(Nc5ccc(Cl)cc5)n4)cc3)nc(N)c2C#N)c1`
Response line: inactive

Prompt line: Identify the outcome logged in this assay for the compound shown: OC1(c2ccccc2)c2ccccc2N(c2ccccc2)c2ccc(Cl)cc21 (configuration not stated)
Response line: active

Prompt line: Identify the outcome logged in this assay for the compound shown: `COc1cc(/C=C2\C(=O)Nc3ccc(O)cc32)cc(OC)c1OC`
Response line: inactive

Prompt line: Identify the outcome logged in this assay for the compound shown: `CC1(C)CCC(c2ccc(Cl)cc2)=C(CN2CCN(c3ccc(C(=O)NS(=O)(=O)c4ccc(N[C@H](CCN5CCOCC5)CSc5ccccc5)c(S(=O)(=O)C(F)(F)F)c4)cc3)CC2)C1`
Response line: inactive

====

Tested on: IGROV1 ovarian
Test Name: NCI tumour cell line growth inhibition, 48 h
# if value of TGI reaches 30 µM, tag y; if it stays below, tag n

Worked examples, 4 compounds total:
Compound: COC1=C(OC)C(=O)c2cc(C)c(=O)c(C)cc2C1=O
Discrete Label: y

Compound: O=c1c2cc(F)ccc2sc2c(NCCCNCCO)nc3ccc(F)cc3c12
Discrete Label: n

Compound: CCCCCCCCCCCCNC(=O)N[C@H](C(=O)N[C@H]1/C=C/OCCNC(=O)/C=C/[C@H](C(C)C)NC1=O)C(C)C
Discrete Label: y

Compound: CC[C@@]12CC(C(=O)OC)=C3Nc4ccccc4[C@@]34CCN(C[C@H]3O[C@H]31)[C@@H]24
Discrete Label: y

Prompt line: Is TGI for CC(C)C1CC(CO)(CNc2nc(N)nc(Cl)c2C=O)C1 (centres undefined) at or above 30 µM?
Response line: n

Prompt line: Is TGI for `CCCCCCCCCCCCOC(=N)N1CCOCC1` at or above 30 µM?
Response line: n

Prompt line: Is TGI for `NCCCc1nonc1C(=O)O` at or above 30 µM?
Response line: y

Prompt line: Is TGI for `CC(C)c1c(C(=O)Nc2ccccc2)c(-c2ccccc2)c(-c2ccc(F)cc2)n1CC[C@@H](O)C[C@@H](O)CC(=O)O` at or above 30 µM?
Response line: y

Prompt line: Is TGI for CCCCP1(=O)C=CC(Cl)=C(C)C1 (centres undefined) at or above 30 µM?
Response line: y

Prompt line: Is TGI for `O=C(/C=C/c1c[nH]c2ccccc12)c1ccccc1O` at or above 30 µM?
Response line: y

Prompt line: Is TGI for N#CC1(C2CC(=O)N(c3ccccc3)C2=O)CCCCC1=O (centres undefined) at or above 30 µM?
Response line: y

====

Test system: NCI-H460 lung
Thanks in advance; please answer with one of these: yes (1) for active, no (0) for inactive

Molecule: CC(C)OC(=O)OCOP(=O)(OCOC(=O)OC(C)C)C1CCCN(O)C1=O (stereo not drawn)
Discrete Label: no (0)

Molecule: C=C(CN1CCc2ccccc2C1)c1ccc(C(=O)Nc2cccc(N)c2)cc1
Discrete Label: no (0)

Prompt line: Identify the outcome logged in this assay for the molecule shown: `COc1ncc(-c2ccc3nc(N)n(-c4ccccc4C(F)(F)F)c(=O)c3c2)cc1S(=O)(=O)Nc1ccc(F)cc1F`
Response line: no (0)

Prompt line: Identify the outcome logged in this assay for the molecule shown: `CC[C@@]12CC(C(=O)OC)=C3Nc4ccccc4[C@@]34CCN(C[C@H]3O[C@H]31)[C@@H]24`
Response line: no (0)

Prompt line: Identify the outcome logged in this assay for the molecule shown: COc1ccc2c(c1)OCC1c3cc(OC)ccc3OC21 (stereo not drawn)
Response line: no (0)

Prompt line: Identify the outcome logged in this assay for the molecule shown: `CCOc1ccc(-c2nc3ccc(-c4nc5ccc(N6CCN(C)CC6)cc5[nH]4)cc3[nH]2)cc1OCC`
Response line: no (0)

Prompt line: Identify the outcome logged in this assay for the molecule shown: `CC1(C)CC[C@]2(C(=O)O)CC[C@]3(C)C(=CC[C@@H]4[C@@]5(C)C/C(=C/c6cccnc6)[C@H](O)C(C)(C)[C@@H]5CC[C@]43C)[C@@H]2C1`
Response line: no (0)

Prompt line: Identify the outcome logged in this assay for the molecule shown: `O=c1[nH]c2c(ccc3cnccc32)c2c1CCC2`
Response line: yes (1)

====

Hi there, I'd appreciate the recorded TGI for every entry that follows.
Tested on: M19-MEL melanoma
Test Name: NCI tumour cell line growth inhibition, 48 h

Example entries and their recorded answers appear below.
Molecule: C[C@H](O)CCC(=O)c1ccoc1
TGI: > 100 µM
//
Molecule: COC(=O)N1C=Cc2c(c(C)c3c([nH]c4ccccc43)c2C)C1C (stereo not drawn)
TGI: 37.6 µM
//
Molecule: CCCCP1(=O)C=CC(Cl)=C(C)C1 (stereo not drawn)
TGI: > 100 µM

Provide TGI values for the following items, in order.
1. CCCCc1c2c([n+]([O-])c3c1CCCC3)CCCC2
2. O=P(c1ccccc1)(c1ccccc1)C1CC=C2CCCCCC2C1 (stereo not drawn)
3. CS(=O)c1cc(=O)c2ccccc2s1 (stereo not drawn)

Response line:
1: > 100 µM; 2: > 100 µM; 3: 11.9 µM

Provide TGI values for the following items, in order.
1. CCCCCCCCCCCCCCCCCCCCCCC(=O)N[C@H]1CCc2cc(OC)c(OC)c(OC)c2-c2ccc(SC)c(=O)cc21
2. C#CC[C@]12CC(=O)CC[C@H]1CC1(C2)OCCO1
3. CC1(C)OC(COP2OCCO2)[C@H](COP2OCCO2)O1 (stereo partly drawn)
4. Cc1c(Cl)ccc2[s+]snc12
5. Cc1cc2c(=O)cc(-c3ccncc3)oc2c(C(N)=O)c1C
6. C=CC(C)(C)[C@@]12CC3C(=O)N[C@@H](Cc4ccccc4)C(=O)N3[C@@H]1N(C(C)=O)c1ccccc12 (stereo partly drawn)

Response line:
1: > 100 µM; 2: > 100 µM; 3: > 100 µM; 4: > 100 µM; 5: > 100 µM; 6: > 100 µM

Prompt line: Value lookup for TGI; key = O=C1N(c2ccccc2)C2(O)C(=O)c3ccccc3C2(O)N1c1ccccc1 (stereo not drawn)
Response line: > 100 µM
